Item-by-item account of EC90
- System: 229E
- assay-method-text: 229E MRC5 CPE assay (cytopathic experiment)
- Format: cell-based, coronavirus 229E (HCoV-229E)
- setup-conditions: Human coronavirus 229E, MRC5, 72 h, read-out: 229E MRC5 CPE assay (μM) EC90

compound: CC(C)(C)C(=O)OCOP(=O)(OCOC(=O)C(C)(C)C)OC[C@H]1O[C@@](C#N)(c2ccc3c(N)ncnn23)[C@H](O)[C@@H]1O
EC90: > 0.5 µM
//
compound: N#C[C@@]1(c2ccc3c(N)ncnn23)O[C@H](COP(=O)(OCOC(=O)CCCc2ccccc2)OCOC(=O)CCCc2ccccc2)[C@@H](O)[C@H]1O
EC90: > 0.5 µM
//
compound: N#C[C@@]1(c2ccc3c(N)ncnn23)O[C@@H]2CO[P@@](=O)(OCOC(=O)CCCc3ccccc3)O[C@H]2[C@H]1O
EC90: 0.1 to 0.5 µM
//
compound: CCC(CC)COC(=O)[C@H](C)N[P@@](=O)(OCOC(=O)c1cccnc1)OC[C@H]1O[C@@](C#N)(c2ccc3c(N)ncnn23)[C@H](O)[C@@H]1O
EC90: > 0.5 µM
//
compound: N#C[C@@]1(c2ccc3c(N)ncnn23)OC2CO[P@](=O)(OCOC(=O)c3cccnc3)O[C@H]2[C@H]1O (stereo partly drawn)
EC90: > 0.5 µM
//
compound: N#C[C@@]1(c2ccc3c(N)ncnn23)O[C@@H]2COP(=O)(O)O[C@H]2[C@H]1OC(=O)c1cccnc1
EC90: > 0.5 µM
//
compound: CC(C)OC(=O)OCO[P@@]1(=O)OC[C@H]2O[C@@](C#N)(c3ccc4c(N)ncnn34)[C@H](O)[C@@H]2O1
EC90: 0.1 to 0.5 µM
//
compound: N#C[C@@]1(c2ccc3c(N)ncnn23)O[C@@H]2CO[P@@](=O)(OCOC(=O)Oc3ccccc3)O[C@H]2[C@H]1O
EC90: > 0.5 µM
//
compound: CCCN(CCC)S(=O)(=O)c1ccc(C(=O)OCO[P@@](=O)(NC(C)(C)C(=O)OC(C)C)OC[C@H]2O[C@@](C#N)(c3ccc4c(N)ncnn34)[C@H](O)[C@@H]2O)cc1
EC90: > 0.5 µM
//
compound: CCCCOC(=O)[C@H](Cc1ccccc1)N[P@@](=O)(OCOC(=O)C(CCC)CCC)OC[C@H]1O[C@@](C#N)(c2ccc3c(N)ncnn23)[C@H](O)[C@@H]1O
EC90: 0.1 to 0.5 µM
//
compound: CCCC(CCC)C(=O)OCO[P@](=O)(NC(C)(C)C(=O)OCC(CC)CC)OC[C@H]1O[C@@](C#N)(c2ccc3c(N)ncnn23)[C@H](O)[C@@H]1O
EC90: 0.1 to 0.5 µM
//
compound: CCCN(CCC)S(=O)(=O)c1ccc(C(=O)O[C@@H]2[C@@H]3OP(=O)(O)OC[C@H]3O[C@@]2(C#N)c2ccc3c(N)ncnn23)cc1
EC90: > 0.5 µM
